CC50 values by entry
- PROTOCOL TEXT: Clonogenic survival of TSU-Pr1 cells after 72 hours exposure to TG analogs
- Type: cell-based, human
- CONDITION NOTES: human; TSU-Pr1, 72 hours exposure; mean (n=5) ± standard error; read-out: LC50 (concentration needed to kill 50% of clonogenic cells)
REPORTED METRIC: CC50 (µM)

INSERT INTO assay_data (sample_smiles, qualifier_sign, reported_result) VALUES
  ('C/C=C(/C)C(=O)O[C@H]1C(C)=C2[C@H]([C@@H]1OC(=O)CCCCCCC)[C@@](C)(OC(C)=O)C[C@H](OC(=O)CCCC(=O)Nc1ccc(C)c(N)c1)[C@@]1(O)[C@H]2OC(=O)[C@@]1(C)O', '=', 16.6),
  ('C/C=C(/C)C(=O)O[C@H]1C(C)=C2[C@H]([C@@H]1OC(=O)CCCCCCC)[C@@](C)(OC(C)=O)C[C@H](OC(=O)CCC(=O)Nc1ccc(C)c(N)c1)[C@@]1(O)[C@H]2OC(=O)[C@@]1(C)O', '>', 25),
  ('C/C=C(/C)C(=O)O[C@H]1C(C)=C2[C@H]([C@@H]1OC(=O)CCCCCCC)[C@@](C)(OC(C)=O)C[C@H](OC(=O)/C=C/c1ccc(NC(=O)OC(C)(C)C)cc1)[C@@]1(O)[C@H]2OC(=O)[C@@]1(C)O', '=', 1.9),
  ('C/C=C(/C)C(=O)O[C@H]1C(C)=C2[C@H]([C@@H]1OC(=O)CCCCCCC)[C@@](C)(OC(C)=O)C[C@H](OC(=O)c1ccc(N)cc1)[C@@]1(O)[C@H]2OC(=O)[C@@]1(C)O', '=', 4),
  ('C/C=C(/C)C(=O)O[C@H]1C(C)=C2[C@H]([C@@H]1OC(=O)CCCCCCC)[C@@](C)(OC(C)=O)C[C@H](OC(=O)CCCc1ccc(N)cc1)[C@@]1(O)[C@H]2OC(=O)[C@@]1(C)O', '=', 0.225);

----------
- PROTOCOL TEXT: Clonogenic survival of TSU-Pr1 cells after 72 hours exposure to TG analogs
- Format: cell-based, human
- CONDITION NOTES: human; TSU-Pr1, 72 hours exposure; mean (n=5) ± standard error; read-out: LC50 (concentration needed to kill 50% of clonogenic cells)
CC50 values by entry
REPORTED METRIC: CC50 (µM)

INSERT INTO measurements (compound, unit_abbrev, qualifier_sign, reported_result) VALUES
  ('C/C=C(/C)C(=O)O[C@H]1C(C)=C2[C@H]([C@@H]1OC(=O)CCCCCCC)[C@@](C)(OC(C)=O)C[C@H](OC(=O)CCc1ccc(NC(=O)OC(C)(C)C)cc1)[C@@]1(O)[C@H]2OC(=O)[C@@]1(C)O', 'µM', '=', 0.87),
  ('C/C=C(/C)C(=O)O[C@H]1C(C)=C2[C@H]([C@@H]1OC(=O)CCCCCCC)[C@@](C)(OC(C)=O)C[C@H](OC(=O)CCC)[C@@]1(O)[C@H]2OC(=O)[C@@]1(C)O', 'µM', '=', 0.03),
  ('C/C=C(/C)C(=O)O[C@H]1C(C)=C2[C@H]([C@@H]1OC(=O)CCCCCCC)[C@@](C)(OC(C)=O)C[C@H](OC(=O)CCCCCC(=O)Nc1ccc(C)c(N)c1)[C@@]1(O)[C@H]2OC(=O)[C@@]1(C)O', 'µM', '=', 3.1),
  ('C/C=C(/C)C(=O)O[C@H]1C(C)=C2[C@H]([C@@H]1OC(=O)CCCCCCC)[C@@](C)(OC(C)=O)C[C@H](O)[C@@]1(O)[C@H]2OC(=O)[C@@]1(C)O [dBTG, 8-O-debutanoylthapsigargin, reference compound]', 'µM', '>', 10),
  ('C/C=C(/C)C(=O)O[C@H]1C(C)=C2[C@H]([C@@H]1OC(=O)CCCCCCC)[C@@](C)(OC(C)=O)C[C@H](OC(=O)CCc1ccc(N)cc1)[C@@]1(O)[C@H]2OC(=O)[C@@]1(C)O', 'µM', '=', 0.275);

----------
- PROTOCOL TEXT: Stability of PSA substrates in serum (AMC release)
- Assay type: in vitro ADME
- CONDITION NOTES: 0.2 mM substrate
Starred links: 1 amine or outer side, 2 acyl side, 3 side chain; linkers in the order of their positions; H or OH if unused. Residues, ends and D or L forms follow the SMILES beside them. *: point of attachment. AMC = Cc1cc(=O)oc2cc(N*)ccc12; Morpholide = C1CN(*)CCO1; CO = O=C([*:1])[*:2]
REPORTED METRIC: picomles AMC released/minute: Fetal Calf (picomoles/minute)

INSERT INTO measurements (compound, reported_metric, reported_result) VALUES
  ('CC[C@H](C)[C@H](NC(=O)[C@H](CCCCN)NC(=O)[C@H](CC(N)=O)NC(=O)[C@H](CCC(=O)O)NC(=O)N1CCOCC1)C(=O)N[C@@H](CO)C(=O)N[C@@H](Cc1ccc(O)cc1)C(=O)N[C@@H](CCC(N)=O)C(=O)Nc1ccc2c(C)cc(=O)oc2c1 [ENKISYQ, Glu-Asn-Lys-Ile-Ser-Tyr-Gln] ({Morpholide-CO}-ENKISYQ-{AMC})', 'picomles AMC released/minute: Fetal Calf', 9.59),
  ('CC[C@H](C)[C@H](NC(=O)[C@H](CCCCN)NC(=O)[C@H](CC(N)=O)NC(=O)[C@H](CCC(N)=O)NC(=O)N1CCOCC1)C(=O)N[C@@H](CO)C(=O)N[C@@H](Cc1ccc(O)cc1)C(=O)N[C@@H](CCC(N)=O)C(=O)Nc1ccc2c(C)cc(=O)oc2c1 [QNKISYQ, Gln-Asn-Lys-Ile-Ser-Tyr-Gln] ({Morpholide-CO}-QNKISYQ-{AMC})', 'picomles AMC released/minute: Fetal Calf', 11.60),
  ('Cc1cc(=O)oc2cc(NC(=O)[C@H](Cc3c[nH]cn3)NC(=O)[C@H](CCC(N)=O)NC(=O)[C@H](CCCCN)NC(=O)[C@H](CO)NC(=O)[C@H](CCCCN)NC(=O)[C@@H](NC(=O)[C@H](C)NC(=O)N3CCOCC3)[C@@H](C)O)ccc12 [ATKSKQH, Ala-Thr-Lys-Ser-Lys-Gln-His] ({Morpholide-CO}-ATKSKQH-{AMC})', 'picomles AMC released/minute: Fetal Calf', 1.19);

----------
- TARGET DESC: thrombin (Homo sapiens)
- Construct: purchased Sigma Chemical Co
- PROTOCOL TEXT: Peptide-AMC cleavage by purified extracellular protease
- Assay type: biochemical
- CONDITION NOTES: 0.2 mM substrate, PSA assay buffer pH 7.8
Starred links: 1 amine or outer side, 2 acyl side, 3 side chain; linkers in the order of their positions; H or OH if unused. Residues, ends and D or L forms follow the SMILES beside them. *: point of attachment. AMC = Cc1cc(=O)oc2cc(N*)ccc12; Morpholide = C1CN(*)CCO1; CO = O=C([*:1])[*:2]
REPORTED METRIC: Picomoles of substrate cleaved/minute/200 pmoles of indicated protease: Thromb

INSERT INTO measurements (molecule, reported_result) VALUES
  ('CC[C@H](C)[C@H](NC(=O)[C@H](CCCCN)NC(=O)[C@H](CC(N)=O)NC(=O)[C@H](CCC(N)=O)NC(=O)N1CCOCC1)C(=O)N[C@@H](CO)C(=O)N[C@@H](Cc1ccc(O)cc1)C(=O)N[C@@H](CCC(N)=O)C(=O)Nc1ccc2c(C)cc(=O)oc2c1 [QNKISYQ, Gln-Asn-Lys-Ile-Ser-Tyr-Gln] ({Morpholide-CO}-QNKISYQ-{AMC})', '0.4 picomoles/minute/200 pmoles pr');

----------
- Tested on: Elastase
- PROTOCOL TEXT: Peptide-AMC cleavage by purified extracellular protease
- Type: biochemical
- CONDITION NOTES: 0.2 mM substrate, PSA assay buffer pH 7.8
Starred links: 1 amine or outer side, 2 acyl side, 3 side chain; linkers in the order of their positions; H or OH if unused. Residues, ends and D or L forms follow the SMILES beside them. *: point of attachment. AMC = Cc1cc(=O)oc2cc(N*)ccc12; Morpholide = C1CN(*)CCO1; CO = O=C([*:1])[*:2]
REPORTED METRIC: Picomoles of substrate cleaved/minute/200 pmoles of indicated protease: Elastase

INSERT INTO assay_data (compound, reported_result) VALUES
  ('CC[C@H](C)[C@H](NC(=O)[C@H](CCCCN)NC(=O)[C@H](CC(N)=O)NC(=O)[C@H](CCC(N)=O)NC(=O)N1CCOCC1)C(=O)N[C@@H](CO)C(=O)N[C@@H](Cc1ccc(O)cc1)C(=O)N[C@@H](CCC(N)=O)C(=O)Nc1ccc2c(C)cc(=O)oc2c1 [QNKISYQ, Gln-Asn-Lys-Ile-Ser-Tyr-Gln] ({Morpholide-CO}-QNKISYQ-{AMC})', '9.0 picomoles/minute/200 pmoles pr'),
  ('CC[C@H](C)[C@H](NC(=O)[C@H](CCCCN)NC(=O)[C@H](CC(N)=O)NC(=O)[C@H](CCC(=O)O)NC(=O)N1CCOCC1)C(=O)N[C@@H](CO)C(=O)N[C@@H](Cc1ccc(O)cc1)C(=O)N[C@@H](CCC(N)=O)C(=O)Nc1ccc2c(C)cc(=O)oc2c1 [ENKISYQ, Glu-Asn-Lys-Ile-Ser-Tyr-Gln] ({Morpholide-CO}-ENKISYQ-{AMC})', '2.6 picomoles/minute/200 pmoles pr');
